Recorded IC50 for the following compounds
tgt: Trypanothione reductase (Trypanosoma brucei brucei)
Sequence (P39051 whole entry): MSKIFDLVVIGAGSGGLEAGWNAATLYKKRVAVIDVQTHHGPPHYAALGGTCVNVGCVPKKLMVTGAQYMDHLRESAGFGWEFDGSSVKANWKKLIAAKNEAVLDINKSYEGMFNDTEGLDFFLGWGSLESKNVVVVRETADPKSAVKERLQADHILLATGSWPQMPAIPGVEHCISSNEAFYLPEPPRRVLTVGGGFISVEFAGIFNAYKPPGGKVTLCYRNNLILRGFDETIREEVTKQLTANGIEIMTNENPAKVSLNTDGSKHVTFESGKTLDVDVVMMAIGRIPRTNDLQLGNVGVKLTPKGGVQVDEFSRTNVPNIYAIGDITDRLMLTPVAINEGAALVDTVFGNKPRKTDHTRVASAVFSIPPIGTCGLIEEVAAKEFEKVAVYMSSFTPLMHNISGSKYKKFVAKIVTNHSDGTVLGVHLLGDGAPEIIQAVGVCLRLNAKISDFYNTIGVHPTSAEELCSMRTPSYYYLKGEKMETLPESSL
test: Inhibition of recombinant trypanothione reductase from Trypanosoma brucei brucei S427 by DTNB-coupled spectrophotometric assay
Answer in nM, number only, no unit symbol.

For orientation, consider the following solved cases.
Ask: Quick check: IC50 of CCN1C(C)=Nc2ccc(Cl)cc2C1c1ccccc1 (racemic) ?
Result: 1200

Ask: Quick check: IC50 of COC(=O)CN1C(C)=Nc2ccc(C)cc2C1c1ccccc1 (racemic) ?
Result: 67000

New cases:
Ask: Quick check: IC50 of CCC1=Nc2ccc(Br)cc2C(c2ccccc2)N1CC(=O)OC (racemic) ?
Result: 23000

Ask: Quick check: IC50 of CC1=Nc2ccc(Br)cc2C(c2ccccc2)N1CCN1CCCCC1 (racemic) ?
Result: 790

Ask: Quick check: IC50 of CC1=Nc2ccc(-c3ccsc3)cc2C(c2ccccc2)N1CCN1CCCCC1 (stereo not drawn) ?
Result: 790

Ask: Quick check: IC50 of CC1=Nc2ccc(Cl)cc2C(c2ccc(Cl)cc2)N1CCN1CCCCC1 (racemic) ?
Result: 730

Ask: Quick check: IC50 of CC1=Nc2ccc(Cl)cc2C(c2ccccc2)N1Cc1ccccc1F (racemic) ?
Result: 940
